- Test system: UO-31 renal
- Experimental details: NCI tumour cell line growth inhibition, 48 h; in the data active means GI50 below about 0.43 µM; inactive means the rest
Use one of these outcomes when replying: label 1 for active, label 0 for inactive

Examples from the recorded data:
[[record]]
compound = "COC(=O)[C@H]1C(=O)[C@@]2(C)[C@H]([C@H](OC(=O)c3ccccc3)[C@]3(O)C[C@H](OC(=O)[C@H](O)[C@@H](NC(=O)c4ccc(F)cc4)c4ccccc4)C(C)=C1C3(C)C)[C@]1(OC(C)=O)CO[C@@H]1C[C@@H]2O"
assigned_class = "label 0"

[[record]]
compound = "COc1ccccc1/C=C/C(=O)c1c(O)cc2occc2c1OC"
assigned_class = "label 0"

[[record]]
compound = "COc1cc(-c2nc(NC(C)=O)sc2-c2ccnc(NCCNS(=O)(=O)c3ccccc3)n2)ccc1Cl"
assigned_class = "label 0"

[[record]]
compound = "O=Nc1ccc(O)c2ccccc12"
assigned_class = "label 0"

[[record]]
compound = "Cc1ccc2c(c1)C(C)Cc1c(ncnc1-n1cnc3cc(C)ccc31)N2C (stereo unspecified)"
assigned_class = "label 1"


Exercise: Kindly provide the recorded test outcome for the following compound: Cc1cc(C(=O)Nc2nc3cccc(Cl)c3n2[C@@H]2CCCCN(C(=O)/C=C/CN(C)C)C2)ccn1
Key: label 0

Exercise: Kindly provide the recorded test outcome for the following compound: C[C@H](N)C(=O)N[C@@H]1[C@H]2C(=C(O)C[C@@H](O)[C@@H]2O)C(=O)O[C@]1(C)C(Cl)Cl
Key: label 0

Exercise: Kindly provide the recorded test outcome for the following compound: CCCCCCCCCCCCNC(=O)[C@H]1CSC(c2cc3ccccc3s2)N1 (stereo partly specified)
Key: label 0

* * *

- System: A549 NSCLC
- Experimental details: NCI tumour cell line growth inhibition, 48 h
GI50 values for the compounds below.

[[record]]
compound = "CN(C)CCCNC(=O)c1ccc2oc3cc4ccccc4c(=O)n3c2c1"
endpoint_result = "27.6 µM"

[[record]]
compound = "CC(C)CCSC1=CC(=O)c2ccccc2C1=O"
endpoint_result = "32.6 µM"

[[record]]
compound = "CCCCCCCCCCCCNC(=O)[C@H]1CSC(c2cc3ccccc3s2)N1 (stereo partly specified)"
endpoint_result = "6.01 µM"

[[record]]
compound = "N=C(N)/N=C(\\N)c1c(-c2cc(O)ccc2O)nc2sccn12"
endpoint_result = "> 100 µM"

[[record]]
compound = "CCN(CC)CCCC(C)Nc1cc(-c2ccc(C(F)(F)F)cc2)c(C#N)c2nc3ccccc3n12 (stereo unspecified)"
endpoint_result = "3.44 µM"


Exercise: GI50 lookup needed for O=C(CCCCCCCn1cc(-c2cccnc2)nn1)Nc1ccccc1-c1ccccc1 , thanks.
Key: 1.15 µM

* * *

- Tested on: SK-MEL-2 melanoma
- Experimental details: NCI tumour cell line growth inhibition, 48 h
Assay readout: TGI

Example compounds with recorded TGI:
[[record]]
compound = "CCCCOCn1c(=O)[nH]c(=O)c2ccccc21"
assay_readout = "TGI"
endpoint_result = "> 100 µM"

[[record]]
compound = "COc1cc(-c2nc(NC(C)=O)sc2-c2ccnc(NCCNS(=O)(=O)c3ccccc3)n2)ccc1Cl"
assay_readout = "TGI"
endpoint_result = "6.23 µM"

[[record]]
compound = "CCOC(=O)[C@@H]1OC(c2ccccc2)O[C@H]1C(=O)OCC"
assay_readout = "TGI"
endpoint_result = "> 100 µM"

[[record]]
compound = "CCN(CC)C(=S)SNc1ccc(S(N)(=O)=O)cc1"
assay_readout = "TGI"
endpoint_result = "> 100 µM"

[[record]]
compound = "O=C1OC(c2ccccc2)=N/C1=C\\c1ccc2ccccc2c1"
assay_readout = "TGI"
endpoint_result = "> 100 µM"


Exercise: TGI lookup needed for COc1cc(Br)c(CC2(C#N)c3ccccc3C3C(N2C(=O)c2ccccc2)C3(Cl)Cl)cc1OC (stereo not given) , thanks.
Key: > 65.5 µM

Exercise: TGI lookup needed for Nc1ccc(Oc2ccc(C3(c4ccc(Oc5ccc(N)cc5)cc4)C4CC5C6CC7CC5C3C(C7)C6C4)cc2)cc1 , thanks.
Key: > 100 µM

Exercise: TGI lookup needed for Cc1cc(=O)oc2cc(SC(=O)N(C)C)ccc12 , thanks.
Key: > 100 µM

Exercise: TGI lookup needed for Cn1cc(-c2csc(-c3cn(C)c4ccc(Br)cc34)n2)c2cnccc21 , thanks.
Key: 3.76 µM

Exercise: TGI lookup needed for O=C(N/N=C/c1ccccc1O)C(O)(c1ccccc1)c1ccccc1 , thanks.
Key: > 100 µM

* * *

- System: HCC-2998 colon
- Experimental details: NCI tumour cell line growth inhibition, 48 h
TGI values for the compounds below.
Give your result in µM as a bare value.

[[record]]
mol_smiles = "COc1c(C)c2c(c3c1c(=O)c1ccccc1n3C)C=CC(C)(C)O2"
system_under_test = "HCC-2998 colon"
endpoint_result = 95.6


Okay, now this compound:
Exercise: TGI lookup needed for COc1cc2c(F)nccc2cc1C(=O)N[C@@H](c1ccc(F)c(Cl)c1)[C@@H]1C[C@@H](O)CN1 , thanks.
Key: 19.5

* * *

- System: BT-549 breast
- Experimental details: NCI tumour cell line growth inhibition, 48 h
Assay readout: TGI

[[record]]
mol_smiles = "Cc1[nH]n(C2=NCCN2)c(=O)c1C"
assay_readout = "TGI"
endpoint_result = "> 100 µM"


Exercise: TGI lookup needed for CCOC(=O)/C(C=Nc1c(C)n(C)n(-c2ccccc2)c1=O)=C(/O)c1ccccc1 , thanks.
Key: > 100 µM

Exercise: TGI lookup needed for CCc1n[nH]c(=O)n1N1C(=O)CCC1=O , thanks.
Key: > 100 µM

Exercise: TGI lookup needed for CC(C)CCSC1=CC(=O)c2ccccc2C1=O , thanks.
Key: 21.3 µM

* * *

- Tested on: SR leukemia
- Experimental details: NCI tumour cell line growth inhibition, 48 h
Assay readout: TGI

Exercise: TGI lookup needed for Cc1cc(=O)oc2cc(SC(=O)N(C)C)ccc12 , thanks.
Key: > 100 µM

Exercise: TGI lookup needed for COc1cc(Br)c(CC2(C#N)c3ccccc3C3C(N2C(=O)c2ccccc2)C3(Cl)Cl)cc1OC (stereo not given) , thanks.
Key: > 65.5 µM

Exercise: TGI lookup needed for CC(/C=C/C(=O)c1sc(-n2nc(-c3ccccc3)cc2-c2ccccc2)nc1C)=C\c1ccccc1 , thanks.
Key: > 100 µM

Exercise: TGI lookup needed for C=CCc1c(C)nc(C)nc1N/N=C/C=C/c1ccccc1 , thanks.
Key: 57.3 µM

Exercise: TGI lookup needed for CCN1C(=S)n2cccc2C1CC(=O)c1ccc(Cl)cc1 (stereo not given) , thanks.
Key: > 100 µM

Exercise: TGI lookup needed for CC(C)(Br)C(Br)CCC(=CCBr)CBr (mixture of isomers) , thanks.
Key: 4.69 µM

Exercise: TGI lookup needed for O=C(Nc1cc2c(=O)[nH]c3ccccc3c2oc1=O)c1cnccn1 , thanks.
Key: > 100 µM

Exercise: TGI lookup needed for CC(C)/C(Cl)=N/OC(=O)Nc1cccc(C(F)(F)F)c1 , thanks.
Key: 3.12 µM

* * *

- Tested on: NCI-H23 lung
- Experimental details: NCI tumour cell line growth inhibition, 48 h
Assay readout: TGI

Example molecules with recorded TGI:
[[record]]
molecule = "O=C1Nc2cc(Cl)ccc2N=CC1NC(=O)C(c1ccccc1)c1ccccc1Cl (stereo unspecified)"
system_under_test = "NCI-H23 lung"
assay_readout = "TGI"
endpoint_result = "> 100 µM"

[[record]]
molecule = "O=C1/C=C/[C@@H](O)[C@@H]2C[C@@H](O)C[C@H]2/C=C/CCC[C@H](CCc2ccc(C(F)(F)F)cc2)O1"
system_under_test = "NCI-H23 lung"
assay_readout = "TGI"
endpoint_result = "1.57 µM"

[[record]]
molecule = "Nc1nc(Cl)cc(NCCCCCNc2cc(Cl)nc(N)n2)n1"
system_under_test = "NCI-H23 lung"
assay_readout = "TGI"
endpoint_result = "> 100 µM"

[[record]]
molecule = "CC(=O)[O-].CC(=O)[O-].O=C(N/N=C/c1cc(Cl)cc(Cl)c1O)c1ccncc1.[Ni+2]"
system_under_test = "NCI-H23 lung"
assay_readout = "TGI"
endpoint_result = "> 100 µM"

[[record]]
molecule = "CC1=CC(=O)CC(C)(C)C1(O)/C=C/C(C)=C/C(=O)O (stereo unspecified)"
system_under_test = "NCI-H23 lung"
assay_readout = "TGI"
endpoint_result = "> 100 µM"


Okay, now this molecule:
Exercise: TGI lookup needed for CC1=C(C(=O)Nc2ccccc2C)C(c2ccc(C3C(C(=O)Nc4ccccc4C)=C(C)NC(C)=C3C(=O)Nc3ccccc3C)cc2)C(C(=O)Nc2ccccc2C)=C(C)N1 , thanks.
Key: 9.6 µM

* * *

- Tested on: SW-620 colon
- Experimental details: NCI tumour cell line growth inhibition, 48 h
Assay readout: TGI (µM)
Give your result in µM as a bare value.

Example molecules with recorded TGI:
[[record]]
molecule = "Cc1ccc(-n2c3nc(=O)n(C)c(=O)c-3nc3ccccc32)cc1"
assay_readout = "TGI"
endpoint_result = 19.6

[[record]]
molecule = "Cc1ccccc1[P+](C)(c1ccccc1C)c1ccccc1C"
assay_readout = "TGI"
endpoint_result = 39.1


Exercise: TGI lookup needed for O=C1OC2C(O)COC2(O)C1(O)C(C[N+](=O)[O-])c1ccc(Cl)cc1 (centres undefined) , thanks.
Key: 14.1

Exercise: TGI lookup needed for O=Nc1ccc(O)c2ccccc12 , thanks.
Key: 3.6
